# assayTarget: Orx1 (Homo sapiens, UniProt O43613)
# Sequence (O43613 whole entry): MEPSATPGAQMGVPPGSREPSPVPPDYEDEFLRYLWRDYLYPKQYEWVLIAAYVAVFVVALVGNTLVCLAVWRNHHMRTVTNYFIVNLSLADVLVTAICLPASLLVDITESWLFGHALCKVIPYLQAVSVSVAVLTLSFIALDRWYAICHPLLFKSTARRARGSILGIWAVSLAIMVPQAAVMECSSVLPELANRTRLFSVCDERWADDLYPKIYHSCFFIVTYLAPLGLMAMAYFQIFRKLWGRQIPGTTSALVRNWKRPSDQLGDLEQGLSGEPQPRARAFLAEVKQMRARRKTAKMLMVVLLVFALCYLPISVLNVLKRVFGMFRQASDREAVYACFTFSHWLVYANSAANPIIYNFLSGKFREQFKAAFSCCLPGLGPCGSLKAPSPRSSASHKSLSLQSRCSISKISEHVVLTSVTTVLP
# protocolNotes: % agonism on Orx1 at the OR2 IC50 concentration
# Format: cell-based
# assayConditions: at the μM concentration needed to achieve IC50 in OR2
Consider the following molecules; for each one, report its % Agonism on Orx1 at OR2 IC50.
I only need the number, in %, no unit after it.

Problem: What does the record list as % Agonism on Orx1 at OR2 IC50 for O=C(CCc1ccc(O)cc1)c1ccc(OC2OC(CO)C(O)C(O)C2O)cc1O (centres unmarked) ?
Solution: 68.74

Problem: Moving on to O=c1c(O)c(-c2ccc(O)cc2)oc2cc(O)cc(O)c12
Solution: 64.4

Problem: Moving on to Cc1cc(O)c2c(c1)C(=O)c1cc(O)cc(O[C@@H]3O[C@H](CO)[C@@H](O)[C@H](O)[C@H]3O)c1C2=O
Solution: 26.23

Problem: Moving on to C[C@@H]1O[C@@H](O[C@H]2[C@H](Oc3c(-c4ccc(O)cc4)oc4cc(O)cc(O)c4c3=O)O[C@H](CO)[C@@H](O)[C@@H]2O)[C@H](O)[C@H](O)[C@H]1O
Solution: 104.1268

Problem: Moving on to CC1O[C@@H](OC2C(O)[C@H](Oc3c(-c4ccc(O)cc4)oc4cc(O)cc(O)c4c3=O)OC(CO)[C@H]2O)[C@@H](O)C(O)[C@H]1O (some centres unmarked)
Solution: 48.83

Problem: Moving on to O=c1c(O[C@@H]2OC[C@H](O)[C@H](O)[C@H]2O)c(-c2ccc(O)cc2)oc2cc(O)cc(O)c12
Solution: 60.57

Problem: Moving on to COc1c(O)cc2oc(-c3ccc(O[C@@H]4O[C@H](C(=O)O)[C@@H](O)[C@H](O)[C@H]4O)c(O)c3)c(OC)c(=O)c2c1O
Solution: 75.74

Problem: Moving on to COc1c(O)cc2oc(-c3ccc(O)cc3)c(OC)c(=O)c2c1O
Solution: 62.98

Problem: Moving on to C[C@@H]1O[C@@H](OC[C@H]2O[C@@H](Oc3c(-c4ccc(O)c(O)c4)oc4cc(O)cc(O)c4c3=O)[C@H](O)[C@@H](O)[C@@H]2O)[C@H](O)[C@H](O)[C@H]1O
Solution: 67.71

Problem: Moving on to O=c1cc(-c2ccc(O)c(O)c2)oc2cc(O)cc(O)c12
Solution: 42.72

Problem: Moving on to COc1ccc(C(=O)CCc2ccc(O)cc2)c(O)c1
Solution: 77.95

Problem: Moving on to COc1cc(-c2oc3c(OC)c(O[C@@H]4O[C@H](COC(C)=O)[C@@H](O)[C@H](O)[C@H]4O[C@@H]4O[C@@H](C)[C@H](O)[C@@H](O)[C@H]4O)cc(O)c3c(=O)c2O)ccc1O
Solution: 103.7053

Problem: Moving on to O=c1c(O[C@@H]2O[C@@H](CO)[C@H](O)[C@H]2O)c(-c2ccc(O)cc2)oc2cc(O)cc(O)c12
Solution: 56.18

Problem: Moving on to O=C(CCc1ccc(O)cc1)c1ccc(O)cc1OC1OC(CO)C(O)C(O)C1O (centres unmarked)
Solution: 100.52

Taken from patent US20250281451A1.
